Test system: MDA-MB-468 breast
Assay: NCI tumour cell line growth inhibition, 48 h
Each entry below carries its reported TGI.
OUTCOME_MEASURE: TGI (µM)

# MOLECULE, COMPARISON_OPERATOR, OBSERVED_MEASUREMENT
data = [
    ("Cn1cnc([N+](=O)[O-])c1Sc1ncn[nH]1", ">", 100),
    ("COc1cc(/C=N/NC(=O)c2cn(C3CC3)c3c(OC)c(N4CC5CCCNC5C4)c(F)cc3c2=O)ccc1O (centres undefined)", "=", 3.11),
    ("COc1cc(/C=C/C(=O)c2cnn(-c3cc(=O)[nH]c4ccc(C)cc34)c2C)cc(OC)c1OC", "=", 3.63),
    ("CCCNc1nc2ccccc2c2c1S(=O)(=O)c1ccc(Cl)cc1C2=O", "=", 1.47),
]

###

Each entry below carries its reported TGI.
System: MDA-MB-468 breast
Experiment: NCI tumour cell line growth inhibition, 48 h

# COMPOUND, TARGET, TGI
data = [
    ("C/C=C(\\C)C(=O)N[C@H]1C(O)C[C@]2(C)C3CC[C@@]4(C)C(CC[C@@H]4C(C)N(C)C)C3CCC2C1O (stereo not given in full)", "MDA-MB-468 breast", "4.54 µM"),
    ("Cc1nc(Nc2nc3ccccc3o2)nc(-c2cccc([N+](=O)[O-])c2)c1C(=O)Nc1ccc(F)c(Cl)c1", "MDA-MB-468 breast", "6.44 µM"),
    ("Cc1cccc2c(N)c3ccccc3nc12", "MDA-MB-468 breast", "4.63 µM"),
    ("Cn1c(=O)c(Oc2ccc(F)cc2F)cc2cnc(NCCS(C)(=O)=O)nc21", "MDA-MB-468 breast", "> 25 µM"),
    ("COc1cc(/C=C/C(=O)c2cccnc2Nc2ccc(F)cc2)cc(OC)c1OC", "MDA-MB-468 breast", "5.67 µM"),
]

###

System: MDA-MB-468 breast
Outcome codes: label 1 for active, label 0 for inactive

# COMPOUND, GROUP
measured = [
    ("COc1cc(/C=C/C(=O)c2cccnc2Nc2ccc(F)cc2)cc(OC)c1OC", "label 0"),
    ("CC(C)CCN[C@@H]1CCc2cc(O)c(N3CC(=O)NS3(=O)=O)c(F)c2C1", "label 0"),
    ("COc1ccc(Nc2cc(C)nc(N3CCN(c4ccnc5cc(Cl)ccc45)CC3)n2)cc1", "label 0"),
    ("C/C=C(\\C)C(=O)N[C@H]1C(O)C[C@]2(C)C3CC[C@@]4(C)C(CC[C@@H]4C(C)N(C)C)C3CCC2C1O (some centres undefined)", "label 0"),
    ("CN(C)CCN1C(=O)c2cccc3cccc(c23)C1=O", "label 0"),
    ("COc1ccc(C2=CC(c3ccc(OC)c(OC)c3)c3c(c4ccccc4oc3=O)O2)cc1OC (centres undefined)", "label 0"),
    ("CCCNc1nc2ccccc2c2c1S(=O)(=O)c1ccc(Cl)cc1C2=O", "label 1"),
    ("Oc1ccc(Cl)cc1CNc1nc2ccccc2[nH]1", "label 0"),
    ("Cc1nc(Nc2nc3ccccc3o2)nc(-c2cccc([N+](=O)[O-])c2)c1C(=O)Nc1ccc(F)c(Cl)c1", "label 0"),
    ("CCN(CC)CCSCCCNc1c2ccc(Cl)cc2nc2ccc(OC)cc12", "label 0"),
    ("COc1cc(/C=C/C(=O)c2cnn(-c3cc(=O)[nH]c4ccc(C)cc34)c2C)cc(OC)c1OC", "label 0"),
    ("COc1ccc2nc(NC(=O)c3cccnc3Nc3cc(OC)c(OC)c(OC)c3)sc2c1", "label 0"),
    ("O=S(=O)(NCCNc1nccc(-c2c(-c3ccc(F)cc3)nc3sccn23)n1)c1ccccc1", "label 0"),
    ("Cn1c(=O)c(Oc2ccc(F)cc2F)cc2cnc(NCCS(C)(=O)=O)nc21", "label 0"),
]
